# ASSAYED_SYSTEM: human glucagon receptor (human) (UniProt P47871)
# Sequence (P47871 26-477): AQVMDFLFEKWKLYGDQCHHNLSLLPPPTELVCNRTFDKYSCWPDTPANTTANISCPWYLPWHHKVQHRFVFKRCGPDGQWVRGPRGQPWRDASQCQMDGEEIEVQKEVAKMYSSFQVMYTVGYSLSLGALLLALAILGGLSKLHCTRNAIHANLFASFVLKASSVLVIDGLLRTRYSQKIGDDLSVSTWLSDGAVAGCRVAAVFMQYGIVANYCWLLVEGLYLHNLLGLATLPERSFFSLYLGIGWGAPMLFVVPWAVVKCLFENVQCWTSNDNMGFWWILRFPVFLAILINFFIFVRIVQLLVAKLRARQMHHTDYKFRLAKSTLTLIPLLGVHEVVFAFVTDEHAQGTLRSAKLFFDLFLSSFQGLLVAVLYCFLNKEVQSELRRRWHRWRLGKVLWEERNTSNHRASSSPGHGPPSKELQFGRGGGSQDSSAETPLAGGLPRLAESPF
# ASSAY_NAME: cell-based or functional assay
Starred links: 1 amine or outer side, 2 acyl side, 3 side chain; linkers in the order of their positions; H or OH if unused. Non-standard residues stand in square brackets, D forms with d. Groups on a side chain read outwards from the residue. No end group written: not given here. *: point of attachment. C20 diacid = O=C(O)CCCCCCCCCCCCCCCCCCC(=O)*; αMePhe(2-F) = C[C@](N)(Cc1ccccc1F)C(=O)O; γGlu = O=C(O)[C@H](CCC(=O)[*:2])N[*:1]; αMeL = CC(C)C[C@](C)(N)C(=O)O; AEEA = NCCOCCOCC(=O)O; Aib = CC(C)(N)C(=O)O
Answer each item with its documented cAMP Rel EC50 (1% HSA).
Give bare numbers, in nM.

Sample records with cAMP Rel EC50 (1% HSA):
YXQGTFTSDXSRXLDKKAQXAFIEXLLEGGPSSGAPPPSGS (non-natural residues; lipidated Lys; C-terminal amide; synthetic construct; SITE 2: note = 2-Aminoisobutyric Acid; SITE 10: note = 3-(4-Pyridyl)-L-alanine; SITE 13: note = alpha-methyl-leucine; SITE 17: note = Lysine is chemically modified through conjugation of the epsilon-amino group of the Lysine side chain with (2-[2-(2-Amino-ethoxy)-ethoxy]-acetyl)) [Example 909] ... 1740
YXQGTFTSDXSQXLDXKAQXAFIEXLLEGGPSSGAPPPSGSEE (non-natural residues; lysine acylated γGlu-C18 diacid; C-terminal amide; synthetic construct; SITE 2: note = 2-Aminoisobutyric Acid; SITE 10: note = 3-(4-Pyridyl)-L-alanine; SITE 13: note = alpha-methyl-leucine; SITE 16: note = L-ornithine; SITE 17: note = Lysine is chemically modified through conjugation of the epsilon-amino group of the Lysine side chain with D-Glutami) [Example 1058] ... 1450
YXQGTFTSDXSXXLDXKAQXAFIEXLLEGGPSSGAPPPSGS (non-natural residues; lysine acylated AEEA-γGlu-C18 diacid; C-terminal amide; synthetic construct; SITE 2: note = 2-Aminoisobutyric Acid; SITE 10: note = 3-(4-Pyridyl)-L-alanine; SITE 12: note = L-ornithine; SITE 13: note = alpha-methyl-leucine; SITE 16: note = L-ornithine; SITE 17: note = Lysine is chemically modified through conjugation of the epsilon-amino group of the Lys) [Example 933] ... 1530
YXQGTXTSDXSILLDKKAQXAFIEXLEEGGPSSGAPPPSGTGE (synthetic construct; SITE 2: note = 2-Aminoisobutyric Acid; SITE 6: note = alpha-methyl-2-fluoro-L-phenylalanine; SITE 10: note = 3-(4-Pyridyl)-L-alanine; SITE 17: note = Lysine is chemically modified through conjugation of the epsilon-amino group of the Lysine side chain with (2-[2-(2-Amino-ethoxy))) [Example 669] ... 173

Below are 6 binders. Give each one its cAMP Rel EC50 (1% HSA).
1. YXQGTFTSDXSQXLDXKAQXAFIEXLIEXGPSSGEPPPSGSEE (AEEA-γGlu-C18 diacid on Lys; non-natural residues; amide; synthetic construct; SITE 2: note = 2-Aminoisobutyric Acid; SITE 10: note = 3-(4-Pyridyl)-L-alanine; SITE 13: note = alpha-methyl-leucine; SITE 16: note = L-ornithine; SITE 17: note = Lysine is chemically modified through conjugation of the epsilon-amino group of the Lysine side chain with (2-[2-(2-) [Example 1097]
2. YXQGTFTSDXSQXLDKKAQXAFIEXLIEXGPSSGEPPPSGE (Aib, 4Pal, αMeL, Me4Pal; acylated Lys; C-terminal amide; synthetic construct; SITE 2: note = 2-Aminoisobutyric Acid; SITE 10: note = 3-(4-Pyridyl)-L-alanine; SITE 13: note = alpha-methyl-leucine; SITE 17: note = Lysine is chemically modified through conjugation of the epsilon-amino group of the Lysine side chain with (gamma-Glu)2-CO-(CH2)16-CO2H; SITE 20:) [Example 1123]
3. Y[Aib]QGTFTSDYSI[αMeL]LDKQAAK([AEEA-AEEA-γGlu-C20 diacid])QFVEWLIAGGPSSGEPPPAEG-NH2 [Example 332]
4. YXQGTXTSDXSIXLDKKAQXXFIEYLSEGGPSSGEPPPEGSEE (synthetic construct; SITE 2: note = 2-Aminoisobutyric Acid; SITE 6: note = alpha-methyl-2-fluoro-L-phenylalanine; SITE 10: note = 3-(4-Pyridyl)-L-alanine; SITE 13: note = alpha-methyl-leucine; SITE 17: note = Lysine is chemically modified through conjugation of the epsilon-amino group of the Lysine) [Example 651]
5. YXQGTFTSDFSKXLDKKAQXAFIEYLIEXGPSSGAPPPSGS (synthetic construct; SITE 2: note = 2-Aminoisobutyric Acid; SITE 13: note = alpha-methyl-leucine; SITE 17: note = Lysine is chemically modified through conjugation of the epsilon-amino group of the Lysine side chain with (2-[2-(2-Amino-ethoxy)-ethoxy]-acetyl)-(gamma-Glu)-CO-(CH2) 16-CO2H; SITE 20: n) [Example 797]
6. Y[Aib]QGTFTSDYSK[αMeL]LDKK([AEEA-γGlu-C20 diacid])AQQAFVQWLIEGGPSSGEPPPSEG-NH2 [Example 315]

Ans:
1: 752; 2: 441; 3: 3340; 4: 639; 5: 963; 6: 1560

Below are 3 binders. Give each one its cAMP Rel EC50 (1% HSA).
1. Y[Aib]QGTFTSDYSI[αMeL]LDKQAAK([AEEA-AEEA-γGlu-C20 diacid])QFVEWLIA[Aib]GPSSGEPPPGEG-NH2 [Example 333]
2. Y[Aib]QGTFTSDYSKLLDKK([AEEA-γGlu-C20 diacid])AQ[Aib]AFVQWLIEGGPSSGEPPPSEG-NH2 [Example 316]
3. YXQGTXTSDXXIXLDXKAQXEFIEXLIEGGPSSGEPPPESE (non-natural residues; K acylated AEEA-γGlu-C18 diacid; C-amide; synthetic construct; SITE 2: note = 2-Aminoisobutyric Acid; SITE 6: note = alpha-methyl-2-fluoro-L-phenylalanine; SITE 10: note = 3-(4-Pyridyl)-L-alanine; SITE 11: note = alpha-methyl-L-serine; SITE 13: note = alpha-methyl-leucine; SITE 16: note = L-ornithine; SITE 17: note = Lysine is chemically mo) [Example 1147]

Ans:
1: 1410; 2: 2090; 3: 167

Below are 5 binders. Give each one its cAMP Rel EC50 (1% HSA).
1. YXQGTFTSDFSXXLDKKAQXAFIEYLIEXGPSSGAPPPSGS (synthetic construct; SITE 2: note = 2-Aminoisobutyric Acid; SITE 12: note = (S)-2,3-diaminopropanoic acid; SITE 13: note = alpha-methyl-leucine; SITE 17: note = Lysine is chemically modified through conjugation of the epsilon-amino group of the Lysine side chain with (2-[2-(2-Amino-ethoxy)-ethoxy]-a)) [Example 800]
2. YXQGTXTSDXXIXLDXQAQXEFIEXLIEGGPSSGAPPPSGSE (not fully specified; no fatty acid; synthetic construct; SITE 2: note = 2-Aminoisobutyric Acid; SITE 6: note = alpha-methyl-2-fluoro-L-phenylalanine; SITE 10: note = 3-(4-Pyridyl)-L-alanine; SITE 11: note = alpha-methyl-L-serine; SITE 13: note = alpha-methyl-leucine; SITE 16: note = L-ornithine; SITE 20: note = 3-(4-Pyridyl)-L-alanine) [Example 1233]
3. YXQGTFTSDXSXXLDXKAQXAFIEYLIAGGPSSGAPPPSGSEE (non-natural residues, C-terminal amide, acylated Lys with fatty diacid; synthetic construct; SITE 2: note = 2-Aminoisobutyric Acid; SITE 10: note = 3-(4-Pyridyl)-L-alanine; SITE 12: note = …; SITE 13: note = alpha-methyl-leucine; SITE 16: note = L-ornithine; SITE 17: note = Lysine is chemically modified through conjugation of the epsilon-amino group of the Lys) [Example 1061]
4. Y[Aib]QGTFTSDYSK[αMeL]LDKKAQQAFVQWLIE[dA]GPSSGEPPPSEG-NH2 (not fully specified (residue 17)) [Example 342]
5. Y[Aib]QGT[αMePhe(2-F)]TSDYSKLLDKIAQKAFIEYLIEGGPSSGEPPPSEG-NH2 (not fully specified (residue 20)) [Example 304]

Ans:
[2500, 9.9, 2910, 2130, 1720]

Below are 4 binders. Give each one its cAMP Rel EC50 (1% HSA).
1. YXQGTFTSDXSKXLDKKAQXAFIEYLIEXGPSSGAPPPSGSEE (non-natural residues; C18 diacid-(γGlu)2 on Lys; C-terminal amide; synthetic construct; SITE 2: note = 2-Aminoisobutyric Acid; SITE 10: note = 3-(4-Pyridyl)-L-alanine; SITE 13: note = alpha-methyl-leucine; SITE 17: note = Lysine is chemically modified through conjugation of the epsilon-amino group of the Lysine side chain with (gamma-Glu)2-CO-(CH2)16-CO2H; SITE 20:) [Example 905]
2. YXQGTFTSDFSXXLDKKAQXAFIEYLLAGGPSSGAPPPEGSEE (Aib, Orn, αMeL; acylated Lys; C-terminal amide; synthetic construct; SITE 2: note = 2-Aminoisobutyric Acid; SITE 12: note = L-ornithine; SITE 13: note = alpha-methyl-leucine; SITE 17: note = Lysine is chemically modified through conjugation of the epsilon-amino group of the Lysine side chain with (gamma-Glu)2-CO-(CH2)16-CO2H; SITE 20: note = 2-Am) [Example 1051]
3. YXQGTXTSDXXIXLDXKAQXXFIEXLTEGGPSSGEPPPSGTE (synthetic construct; SITE 2: note = 2-Aminoisobutyric Acid; SITE 6: note = alpha-methyl-2-fluoro-L-phenylalanine; SITE 10: note = 3-(4-Pyridyl)-L-alanine; SITE 11: note = alpha-methyl-L-serine; SITE 13: note = alpha-methyl-leucine; SITE 16: note = L-ornithine; SITE 17: note = Lysine is chemically mo) [Example 542]
4. YXQGTFTSDXSQXLDXKAQXAFIQXLIEGGPSSGAPPPSGSEEE (Aib, 4Pal, αMeL, Orn, Me4Pal, αMeY; γGlu-C18 diacid Lys; amide; synthetic construct; SITE 2: note = 2-Aminoisobutyric Acid; SITE 10: note = 3-(4-Pyridyl)-L-alanine; SITE 13: note = alpha-methyl-leucine; SITE 16: note = L-ornithine; SITE 17: note = Lysine is chemically modified through conjugation of the epsilon-amino group of the Lysine side chain with D-Glutami) [Example 1076]

Ans:
1390
1800
256
1650
